assay: Clearance in Beagle dog at 0.5 mg/kg, iv administered as 1 hr infusion on day 1 and day 7 to achieve a target dose of 1 mg/kg by LC-MS/MS analysis; format: ADME, organism-based, Canis lupus familiaris; settings: in vivo, dose 0.5-1 mg/kg, time 7 day
Note to self: use TRUE only for clearance readings below 10 mL/min/kg; a reading exactly at 10 mL/min/kg still gets FALSE.

See these solved cases before continuing.
# Compound, Discrete label
rows = [
    ("CNC(=O)c1cc(C(=O)N[C@H]2[C@@H]3COC[C@@H]32)cc(C(OC)c2ccccc2)n1 (some centres not stated)", "TRUE"),
    ("CNC(=O)c1cc(C(=O)N[C@H]2[C@@H]3COC[C@@H]32)cc(Cc2cccc3[nH]ccc23)n1", "TRUE"),
    ("CNC(=O)c1cc(C(=O)NCCC[C@H]2OC[C@H](N)CO2)cc(Cc2ccccc2)n1", "FALSE"),
    ("CNC(=O)c1cc(C(=O)N[C@H]2[C@@H]3COC[C@@H]32)cc(Cc2ccccc2)n1", "FALSE"),
    ("CNC(=O)c1cc(C(=O)N[C@H]2C[C@@H]2C)cc([C@@H](O)c2ccccc2)n1", "FALSE"),
    ("CNC(=O)c1cc(C(=O)N[C@H]2C[C@@H]2C)cc(Cc2cccc3[nH]ccc23)n1", "FALSE"),
]

Does the reported clearance of `CNC(=O)c1cc(C(=O)N[C@H]2[C@@H]3COC[C@@H]32)cc([C@@H](C)c2ccccc2)n1` stay below 10 mL/min/kg? FALSE

###

experiment: Half life in Wistar Han rat at 1 mg/kg, iv administered as 1 hr infusion or 3 mg/kg, po administered via gavage by LC-MS/MS analysis; type: ADME, organism-based; conditions: in vivo
Metric name: half-life (min)
Give bare numbers, in min.

Would you please look over these solved cases?
# Compound, Observed value
data = [
    ("CNC(=O)c1cc(C(=O)N[C@H]2C[C@@H]2C)cc([C@@H](O)c2ccccc2)n1", 120),
    ("CNC(=O)c1cc(C(=O)N[C@H]2C[C@@H]2C)cc(Cc2cccc3[nH]ccc23)n1", 72),
]

// for each compound below, give its half-life
1. CNC(=O)c1cc(C(=O)N[C@H]2[C@@H]3COC[C@@H]32)cc(C(OC)c2ccccc2)n1 (stereo partly specified)
2. CNC(=O)c1cc(C(=O)N[C@H]2[C@@H]3COC[C@@H]32)cc([C@@H](C)c2ccccc2)n1
3. CNC(=O)c1cc(C(=O)N[C@H]2[C@@H]3COC[C@@H]32)cc(C(CC#N)c2ccccc2)n1 (stereo partly specified)

1. 90
2. 24
3. 264

For every record below, what is its half-life?
1. CNC(=O)c1cc(C(=O)N[C@H]2[C@@H]3COC[C@@H]32)cc(Cc2ccccc2)n1
2. CNC(=O)c1cc(C(=O)N[C@H]2[C@@H]3COC[C@@H]32)cc(Cc2cccc3[nH]ccc23)n1
3. CNC(=O)c1cc(C(=O)NC2CC2)cc(Cc2cccc3c2CCN3)n1.Cl
4. CNC(=O)c1cc(C(=O)NCCC[C@H]2OC[C@H](N)CO2)cc(Cc2ccccc2)n1
5. CNC(=O)c1cc(C(=O)NC2CC2)cc(Cc2ccccc2)n1

1: 18; 2: 42; 3: 114; 4: 24; 5: 18

Complete the entry with half-life for CNC(=O)c1cc(C(=O)N[C@H]2[C@@H]3C[C@@H](O)C[C@@H]32)cc(C(OC)c2ccccc2)n1 (stereo partly specified) 42
